assay: Neurotoxicity in mouse HT-22 cells assessed as reduction in cell viability at 25 uM incubated for 24 hrs by MTT assay; type: cell-based; conditions: ht-22, 24 h
RECORDED_METRIC: Activity

- COc1cc(/C=C/C(=O)O)ccc1O [FERULATE]: Non-Toxic
- COc1ccc2[nH]cc(CCNC(C)=O)c2c1: Non-Toxic
- COc1ccc2[nH]cc(CCNC(=O)CCCCCCNC(=O)Oc3ccc4c(c3)CN3CCc5ccccc5C3N4C)c2c1 (centres undefined): Non-Toxic
- COc1cc(/C=C/C(=O)NCCCCNC(=O)Oc2ccc3c(c2)CN2CCc4ccccc4C2N3C)ccc1O (centres undefined): Non-Toxic
